test system: Escherichia coli TOP10; assay: shrunken log2 fold change of peptide-encoding DNA abundance (4.5 h post-induction vs induction); higher = less antimicrobial activity (less host growth inhibition); conditions: time post-induction: 4.5 h; library: site-saturation at positions 5, 18, 19, 20;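 further: peptides expressed intracellularly from a pBAD plasmid library in pooled LB shake-flask culture, induced with 0.3% L-arabinose, DNA abundance read by NGS, three biological replicates, DESeq2 with apeglm shrinkage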
Threshold rule: shrunken log2 fold change greater than or equal to 0.1 is label 1; below that, label 0.

-- ask Quick check: does "RRIRTRPPRLPRPRPRPITFPRP" have shrunken log2 fold change greater than or equal to 0.1?
-- reply label 0

-- ask Quick check: does "RRIRFRPPRLPRPRPRPQNAPRP" have shrunken log2 fold change greater than or equal to 0.1?
-- reply label 0

-- ask Quick check: does "RRIRDRPPRLPRPRPRPVMCPRP" have shrunken log2 fold change greater than or equal to 0.1?
-- reply label 1

-- ask Quick check: does "RRIRWRPPRLPRPRPRPVEGPRP" have shrunken log2 fold change greater than or equal to 0.1?
-- reply label 0

-- ask Quick check: does "RRIRNRPPRLPRPRPRPEEGPRP" have shrunken log2 fold change greater than or equal to 0.1?
-- reply label 1

-- ask Quick check: does "RRIRCRPPRLPRPRPRPLADPRP" have shrunken log2 fold change greater than or equal to 0.1?
-- reply label 1

-- ask Quick check: does "RRIRHRPPRLPRPRPRPISMPRP" have shrunken log2 fold change greater than or equal to 0.1?
-- reply label 0

-- ask Quick check: does "RRIRCRPPRLPRPRPRPSKRPRP" have shrunken log2 fold change greater than or equal to 0.1?
-- reply label 0

-- ask Quick check: does "RRIRGRPPRLPRPRPRPPGGPRP" have shrunken log2 fold change greater than or equal to 0.1?
-- reply label 1

-- ask Quick check: does "RRIRDRPPRLPRPRPRPSEQPRP" have shrunken log2 fold change greater than or equal to 0.1?
-- reply label 0

-- ask Quick check: does "RRIRMRPPRLPRPRPRPTNPPRP" have shrunken log2 fold change greater than or equal to 0.1?
-- reply label 1

-- ask Quick check: does "RRIRFRPPRLPRPRPRPKKRPRP" have shrunken log2 fold change greater than or equal to 0.1?
-- reply label 1

-- ask Quick check: does "RRIRKRPPRLPRPRPRPRTHPRP" have shrunken log2 fold change greater than or equal to 0.1?
-- reply label 1

-- ask Quick check: does "RRIRERPPRLPRPRPRPPCFPRP" have shrunken log2 fold change greater than or equal to 0.1?
-- reply label 0

-- ask Quick check: does "RRIRQRPPRLPRPRPRPPQYPRP" have shrunken log2 fold change greater than or equal to 0.1?
-- reply label 1

-- ask Quick check: does "RRIRPRPPRLPRPRPRPTHAPRP" have shrunken log2 fold change greater than or equal to 0.1?
-- reply label 1

-- ask Quick check: does "RRIRMRPPRLPRPRPRPVTTPRP" have shrunken log2 fold change greater than or equal to 0.1?
-- reply label 1

-- ask Quick check: does "RRIRSRPPRLPRPRPRPVDIPRP" have shrunken log2 fold change greater than or equal to 0.1?
-- reply label 1

-- ask Quick check: does "RRIRDRPPRLPRPRPRPYMCPRP" have shrunken log2 fold change greater than or equal to 0.1?
-- reply label 0

-- ask Quick check: does "RRIRPRPPRLPRPRPRPHLVPRP" have shrunken log2 fold change greater than or equal to 0.1?
-- reply label 0

-- ask Quick check: does "RRIRTRPPRLPRPRPRPEEFPRP" have shrunken log2 fold change greater than or equal to 0.1?
-- reply label 0

-- ask Quick check: does "RRIRQRPPRLPRPRPRPFHYPRP" have shrunken log2 fold change greater than or equal to 0.1?
-- reply label 0

-- ask Quick check: does "RRIRMRPPRLPRPRPRPRDYPRP" have shrunken log2 fold change greater than or equal to 0.1?
-- reply label 0

-- ask Quick check: does "RRIRFRPPRLPRPRPRPTALPRP" have shrunken log2 fold change greater than or equal to 0.1?
-- reply label 0

-- ask Quick check: does "RRIRDRPPRLPRPRPRPVGFPRP" have shrunken log2 fold change greater than or equal to 0.1?
-- reply label 1

-- ask Quick check: does "RRIRGRPPRLPRPRPRPIRLPRP" have shrunken log2 fold change greater than or equal to 0.1?
-- reply label 0

-- ask Quick check: does "RRIRLRPPRLPRPRPRPNYKPRP" have shrunken log2 fold change greater than or equal to 0.1?
-- reply label 0

-- ask Quick check: does "RRIRHRPPRLPRPRPRPQCSPRP" have shrunken log2 fold change greater than or equal to 0.1?
-- reply label 0

-- ask Quick check: does "RRIRMRPPRLPRPRPRPRWNPRP" have shrunken log2 fold change greater than or equal to 0.1?
-- reply label 1

-- ask Quick check: does "RRIRVRPPRLPRPRPRPFHMPRP" have shrunken log2 fold change greater than or equal to 0.1?
-- reply label 0

-- ask Quick check: does "RRIRNRPPRLPRPRPRPHARPRP" have shrunken log2 fold change greater than or equal to 0.1?
-- reply label 1

-- ask Quick check: does "RRIRYRPPRLPRPRPRPPVAPRP" have shrunken log2 fold change greater than or equal to 0.1?
-- reply label 0

-- ask Quick check: does "RRIRHRPPRLPRPRPRPEVTPRP" have shrunken log2 fold change greater than or equal to 0.1?
-- reply label 0

-- ask Quick check: does "RRIRCRPPRLPRPRPRPLANPRP" have shrunken log2 fold change greater than or equal to 0.1?
-- reply label 1

-- ask Quick check: does "RRIRARPPRLPRPRPRPLFCPRP" have shrunken log2 fold change greater than or equal to 0.1?
-- reply label 0

-- ask Quick check: does "RRIRCRPPRLPRPRPRPPFKPRP" have shrunken log2 fold change greater than or equal to 0.1?
-- reply label 1

-- ask Quick check: does "RRIRRRPPRLPRPRPRPVGKPRP" have shrunken log2 fold change greater than or equal to 0.1?
-- reply label 0

-- ask Quick check: does "RRIRYRPPRLPRPRPRPYQDPRP" have shrunken log2 fold change greater than or equal to 0.1?
-- reply label 0

-- ask Quick check: does "RRIRGRPPRLPRPRPRPFAWPRP" have shrunken log2 fold change greater than or equal to 0.1?
-- reply label 1
